System: MV4-11
measurement.notes: Antiproliferative activity against human MV4-11 cells assessed as cell growth inhibition measured after 3 days by CellTitre-Glo assay
Assay type: functional, cell-based
conditions: MV4-11, 72 h
pIC50: −log10 of the molar value.
Lab note: anything with pIC50 at or over 7 counts as T; the rest go in F.

Query block: # bool: pIC50 of `Cc1nnc2n1-c1ccc(-c3cnn(C)c3)cc1[C@H](Nc1ccc(Cl)cc1)CC2` >= 7
Result block: F

Query block: Form field: pIC50 at least 7? Entry: Cc1nnc2n1-c1ccc(-c3ccc(CN(C)CCCCc4cccc5c4CN(C4CCC(=O)NC4=O)C5=O)cc3)cc1C(Nc1ccc(Cl)cc1)CC2 (stereo not given)
Result block: T

Query block: Does Cc1nnc2n1-c1ccc(-c3cnn(CC(=O)NCCCCCC#Cc4cccc5c4CN(C4CCC(=O)NC4=O)C5=O)c3)cc1C(Nc1ccc(Cl)cc1)CC2 (stereo not given) have a reported pIC50 of at least 7?
Result block: F

Query block: Hi, just wondering whether CNCc1ccc(-c2ccc3c(c2)C(Nc2ccc(Cl)cc2)CCc2nnc(C)n2-3)cc1 (stereo not given) shows pIC50 of 7 or higher.
Result block: F

Query block: Hi, just wondering whether Cc1nnc2n1-c1ccc(-c3ccc(CNCCCCc4cccc5c4CN(C4CCC(=O)NC4=O)C5=O)cc3)cc1C(Nc1ccc(Cl)cc1)CC2 (stereo not given) shows pIC50 of 7 or higher.
Result block: T

----------
Tested on: HepG2
measurement.notes: Antiproliferative activity against human HepG2 cells assessed as cell growth inhibition measured after 4 days by CCK-8 assay
Assay type: functional, cell-based
conditions: HepG2, 96 h
So I've got a bunch of compounds here, and I need their IC50 values.
API: value field is a number in µM; no unit string.

Query block: Query (compound): Cc1sc2c(c1C)C(c1ccc(Cl)cc1)=N[C@@H](CC(=O)NCCCCNC(=O)COc1cccc3c1C(=O)N(C1CCC(=O)NC1=O)C3=O)c1nnc(C)n1-2 (stereo partly drawn) ; field requested: IC50
Result block: 19.8

Query block: Reported IC50, compound Cc1nnc2n1-c1ccc(-c3ccc(CNCCCCc4cccc5c4CN(C4CCC(=O)NC4=O)C5=O)cc3)cc1C(Nc1ccc(Cl)cc1)CC2 (stereo not drawn) : ____
Result block: 17.2

Query block: For the compound shown here, Cc1nnc2n1-c1ccc(-c3ccc(CNCCCCc4cccc5c4CN(C4CCC(=O)N(C)C4=O)C5=O)cc3)cc1C(Nc1ccc(Cl)cc1)CC2 (stereo not drawn) , give the reported IC50.
Result block: 7.56

----------
measurement.notes: Half life in C57 mouse at 3 mg/kg, iv measured upto 24 hrs by LC-MS/MS analysis
Type: ADME, organism-based
conditions: in vivo
metric: half-life (min)
Hi! Could you send only the number? It should be in min, unit omitted.

Query block: What measured half-life goes with Cc1nnc2n1-c1ccc(-c3ccc(CN(C)CCCCc4cccc5c4CN(C4CCC(=O)NC4=O)C5=O)cc3)cc1C(Nc1ccc(Cl)cc1)CC2 (stereo unspecified) ?
Result block: 30

----------
target.desc: Bromodomain-containing protein 3 (Homo sapiens, UniProt Q15059)
Sequence (Q15059 whole entry, the tested form may be a part): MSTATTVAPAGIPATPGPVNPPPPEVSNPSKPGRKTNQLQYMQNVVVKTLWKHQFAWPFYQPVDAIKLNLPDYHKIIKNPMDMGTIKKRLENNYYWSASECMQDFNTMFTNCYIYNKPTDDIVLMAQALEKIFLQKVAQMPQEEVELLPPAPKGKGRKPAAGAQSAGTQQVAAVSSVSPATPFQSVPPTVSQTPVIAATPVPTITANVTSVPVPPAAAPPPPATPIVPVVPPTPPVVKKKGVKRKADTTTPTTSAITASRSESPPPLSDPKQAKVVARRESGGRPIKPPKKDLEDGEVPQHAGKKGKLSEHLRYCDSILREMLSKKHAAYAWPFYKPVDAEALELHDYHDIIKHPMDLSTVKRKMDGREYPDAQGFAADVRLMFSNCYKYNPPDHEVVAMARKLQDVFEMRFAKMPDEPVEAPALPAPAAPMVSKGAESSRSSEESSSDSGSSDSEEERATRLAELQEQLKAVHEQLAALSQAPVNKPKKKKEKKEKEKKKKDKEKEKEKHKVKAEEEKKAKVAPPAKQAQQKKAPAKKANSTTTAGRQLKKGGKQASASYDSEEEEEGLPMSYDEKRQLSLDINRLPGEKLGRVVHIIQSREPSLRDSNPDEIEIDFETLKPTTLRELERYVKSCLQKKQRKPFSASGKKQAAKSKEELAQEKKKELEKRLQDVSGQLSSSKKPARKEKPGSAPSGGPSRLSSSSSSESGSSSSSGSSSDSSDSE
measurement.notes: Binding affinity to recombinant human BRD3 BD1 (24 to 144 residues) assessed as inhibition constant by fluorescence polarization binding assay
metric: log10 Ki (log10 of the value in nM)
The common logarithm of Ki in nM is what is listed.

Query block: Item under review: Cc1nnc2n1-c1ccc(-c3ccc(CNCCCCCc4cccc5c4CN(C4CCC(=O)NC4=O)C5=O)cc3)cc1C(Nc1ccc(Cl)cc1)CC2 (configuration not stated) . Reported log10 Ki?
Result block: 1.19

Query block: Name the recorded log10 Ki for Cc1nnc2n1-c1ccc(-c3ccc(CNCCCCCCCc4cccc5c4CN(C4CCC(=O)NC4=O)C5=O)cc3)cc1C(Nc1ccc(Cl)cc1)CC2 (configuration not stated) .
Result block: 0.90

Query block: log10 Ki for Cc1nnc2n1-c1ccc(-c3ccc(CNCCCC#Cc4cccc5c4CN(C4CCC(=O)NC4=O)C5=O)cc3)cc1C(Nc1ccc(Cl)cc1)CC2 (configuration not stated) ?
Result block: 1.68

Query block: What does the record list as log10 Ki for Cc1nnc2n1-c1ccc(-c3cnn(CC(=O)NCCCC#Cc4cccc5c4CN(C4CCC(=O)NC4=O)C5=O)c3)cc1C(Nc1ccc(Cl)cc1)CC2 (configuration not stated) ?
Result block: 1.58

Query block: Looking for the measured log10 Ki of Cc1nnc2n1-c1ccc(-c3ccc(CNCCCCc4cccc5c4CN(C4CCC(=O)NC4=O)C5=O)cc3)cc1C(Nc1ccc(Cl)cc1)CC2 (configuration not stated) , can you help?
Result block: 1.08

Query block: Endpoint output: log10 Ki of Cc1nnc2n1-c1ccc(-c3ccc(CNCC#Cc4cccc5c4CN(C4CCC(=O)NC4=O)C5=O)cc3)cc1C(Nc1ccc(Cl)cc1)CC2 (configuration not stated) . Value?
Result block: 1.39

Query block: Given the entry Cc1sc2c(c1C)C(c1ccc(Cl)cc1)=N[C@@H](CC(=O)NCCCCNC(=O)COc1cccc3c1C(=O)N(C1CCC(=O)NC1=O)C3=O)c1nnc(C)n1-2 (some centres not stated) , report its measured log10 Ki.
Result block: 0.86

Query block: Which value of log10 Ki has been reported for CNCc1ccc(-c2ccc3c(c2)C(Nc2ccc(Cl)cc2)CCc2nnc(C)n2-3)cc1 (configuration not stated) in the records?
Result block: 2.43

Query block: Entry under review: Cc1nnc2n1-c1ccc(-c3ccc(CNCCC#Cc4cccc5c4CN(C4CCC(=O)NC4=O)C5=O)cc3)cc1C(Nc1ccc(Cl)cc1)CC2 (configuration not stated) . Reported log10 Ki?
Result block: 1.35

Query block: Could you share which log10 Ki value was measured for Cc1nnc2n1-c1ccc(-c3ccc(CN(C)CCCCc4cccc5c4CN(C4CCC(=O)NC4=O)C5=O)cc3)cc1C(Nc1ccc(Cl)cc1)CC2 (configuration not stated) ?
Result block: 1.23

Query block: Endpoint output: log10 Ki of Cc1nnc2n1-c1ccc(-c3ccc(CNCCCc4cccc5c4CN(C4CCC(=O)NC4=O)C5=O)cc3)cc1C(Nc1ccc(Cl)cc1)CC2 (configuration not stated) . Value?
Result block: 1.27

Query block: Entry Cc1nnc2n1-c1ccc(-c3cnn(CC(=O)NCCCCCC#Cc4cccc5c4CN(C4CCC(=O)NC4=O)C5=O)c3)cc1C(Nc1ccc(Cl)cc1)CC2 (configuration not stated) has what log10 Ki?
Result block: 1.52

Query block: Would you mind telling me what log10 Ki value was observed for Cc1nnc2n1-c1ccc(-c3ccc(CNCCCCCC#Cc4cccc5c4CN(C4CCC(=O)NC4=O)C5=O)cc3)cc1C(Nc1ccc(Cl)cc1)CC2 (configuration not stated) ?
Result block: 1.18

Query block: // lookup log10 Ki for Cc1nnc2n1-c1ccc(-c3ccc(CNCCCCC#Cc4cccc5c4CN(C4CCC(=O)NC4=O)C5=O)cc3)cc1C(Nc1ccc(Cl)cc1)CC2 (configuration not stated)
Result block: 1.08

Query block: Data request, read-out log10 Ki, for Cc1nnc2n1-c1ccc(-c3cnn(CC(=O)NCCCCC#Cc4cccc5c4CN(C4CCC(=O)NC4=O)C5=O)c3)cc1C(Nc1ccc(Cl)cc1)CC2 (configuration not stated)
Result block: 1.47

Query block: Consider the compound Cc1nnc2n1-c1ccc(-c3ccc(CNCCCCCCc4cccc5c4CN(C4CCC(=O)NC4=O)C5=O)cc3)cc1C(Nc1ccc(Cl)cc1)CC2 (configuration not stated) and give its measured log10 Ki.
Result block: 0.83

Query block: Need log10 Ki of Cc1nnc2n1-c1ccc(-c3ccc(CNCCCCc4cccc5c4CN(C4CCC(=O)N(C)C4=O)C5=O)cc3)cc1C(Nc1ccc(Cl)cc1)CC2 (configuration not stated) , thanks.
Result block: 1.12
